I'd appreciate it if you could supply IC50 values for the items below.
tested on: PANC-1 (pancreatic cancer) cell line; experiment: Cell growth inhibition experiment (SRB), PANC-1; assay type: cell-based; settings: Homo sapiens, PANC-1, 96 h, 96 hours incubation

# annotated cases, reported IC50 shown
* CCOc1nc2oc(C)cc2nc1NC(=O)N1CCN(c2cc(C(F)(F)F)cc(C(F)(F)F)c2)CC1 | < 2.5 µM
* CCOc1nc2oc(Cl)cc2nc1NC(=O)N1CCN(c2cc(F)cc(F)c2)CC1 | < 2.5 µM

# evaluate next
COc1cc(OCCN(C)C)cc(N2CCN(C(=O)Nc3nc4cc(Cl)oc4nc3OC)CC2)c1 yielded IC50 of 0.61 µM
